The measurements presented in this section are drawn from PubChem BioAssay (Tox21).

TARGET_ENTITY: Estrogen receptor (Homo sapiens)
ASSAY_OVERVIEW: qHTS assay to identify small molecule antagonists of the estrogen receptor alpha (ER-alpha) signaling pathway using the BG1 cell line in the presence of 0.1 nM 17-beta-estradiol (AID 1259244); note: nearly all actives have a fitted effect of over 50% in size
CONDITION_SET: VM7Luc4E2 (BG1) ERE-luciferase, antagonist mode, 0.1 nM E2, 22 h; series mostly up to 92.4 µM
Records with an inconclusive call do not appear. Calls of active or inactive are those of the source. Calls come from the whole dose curve; as a rule, active = well fitted inhibition curve with a large enough effect in the repeat runs; inconclusive = weak or mixed curves; inactive = no such curve, though single readings can be large or run the other way.
Give one outcome, nothing more. List: true (active), false (inactive)

Before answering, review these 5 worked examples.
N#Cc1ccc(Cl)cc1 = false
CC(Cl)C(C)Cl (stereo not given) = false
ClCc1ccccc1 = false
CO/N=C(/C(=O)OC)c1ccccc1COc1ccccc1C = false
IC(I)=C(I)I = true

**Q:** Please state the recorded outcome for this compound: `O=NN1CCNCC1`
**A:** false

**Q:** Name the outcome recorded for `CCCCNP(N)(N)=S` in the assay.
**A:** false

**Q:** Hi, do you know how `C=CC(=O)OCC(C)C` came out in this test?
**A:** false

**Q:** Hello, I am checking results. What call was entered for `Cl/C=C\C[N+]12CN3CN(CN(C3)C1)C2` ?
**A:** false

**Q:** Field: outcome | Entry: `C=CCC1([C@H](C)CCC)C(=O)NC(=O)NC1=O`
**A:** false
